Data provenance is the supplement of paper PMC12042874.

ASSAY INFO: amyloid nucleation score (Sup35N fusion, yeast selection) (log enrichment); library NNK1; higher = more nucleation; inactive = no reads after selection;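 note: zero at mode of non-aggregating sequences after 7 days selection at 30°C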
EXPERIMENTAL ENDPOINT: amyloid nucleation score
// return just the number, without any unit appended

Dear colleague, I am looking for the recorded amyloid nucleation score of the following substance: INRTTRNLLSRCRWYNCYKR 0.155

Dear colleague, I am looking for the recorded amyloid nucleation score of the following substance: LLVVIQICLM 2.9

Dear colleague, I am looking for the recorded amyloid nucleation score of the following substance: TCRDYCASVSEEQIWLMVYR 0.297

Dear colleague, I am looking for the recorded amyloid nucleation score of the following substance: KTLFMITYFGL 0.85

Dear colleague, I am looking for the recorded amyloid nucleation score of the following substance: LTGYTAS 0.295

Dear colleague, I am looking for the recorded amyloid nucleation score of the following substance: AGDLGPREQGR 0.171

Dear colleague, I am looking for the recorded amyloid nucleation score of the following substance: VITTNLTCFALSYAAVFISK 3.69

Dear colleague, I am looking for the recorded amyloid nucleation score of the following substance: FDLTLCICCLRSECYYITPR 8.73

----------
ASSAY INFO: amyloid nucleation score (Sup35N fusion, yeast selection) (log enrichment); library NNK3; higher = more nucleation; inactive = no reads after selection
EXPERIMENTAL ENDPOINT: amyloid nucleation score

LYDLTGPVSNLTISLLNVEY = inactive
LYSETWEY = inactive
PMKGSSMSTPTANIRQ = -0.135
NLLDYTVIVNSLSFVDSKSS = inactive
ALQYGNHRGCSYGCMITFVR = inactive
VCWSHKCRVDVS = inactive

Dear colleague, I am looking for the recorded amyloid nucleation score of the following sequence: GRRMWCCREAHRSNDQV 1.28

Dear colleague, I am looking for the recorded amyloid nucleation score of the following sequence: FNDNVVVVSDNVVRRITSKS inactive

Dear colleague, I am looking for the recorded amyloid nucleation score of the following sequence: YASVEIFHWTFSGILYSWGH inactive

Dear colleague, I am looking for the recorded amyloid nucleation score of the following sequence: ARIDCGSVELKECDLRPDYG inactive

Dear colleague, I am looking for the recorded amyloid nucleation score of the following sequence: CYFSIYYYSYLLFRMLGVKW inactive

----------
So I've got a bunch of substances here, and I need their amyloid nucleation score values.
ASSAY INFO: amyloid nucleation score (Sup35N fusion, yeast selection) (log enrichment); library NNK2; higher = more nucleation; inactive = no reads after selection
// return just the number, without any unit appended

Dear colleague, I am looking for the recorded amyloid nucleation score of the following substance: GAVGARLAINGSSRWMCSWY 2.39

Dear colleague, I am looking for the recorded amyloid nucleation score of the following substance: TYIFLSRIGQFSKLQYVMRL 5.37

Dear colleague, I am looking for the recorded amyloid nucleation score of the following substance: DMMRFYGAPDGQGNTHQNRT 1.63

Dear colleague, I am looking for the recorded amyloid nucleation score of the following substance: HIDNVGVLR 1.18

Dear colleague, I am looking for the recorded amyloid nucleation score of the following substance: FRMVSKPMLYNIMRFTSMLV 0.057

Dear colleague, I am looking for the recorded amyloid nucleation score of the following substance: DKRLCLMVCNLLVYYMPF -0.952

Dear colleague, I am looking for the recorded amyloid nucleation score of the following substance: RSDSVYSIGCSNENRQSGRA 1.21

Dear colleague, I am looking for the recorded amyloid nucleation score of the following substance: TGYAWGG 2.16

Dear colleague, I am looking for the recorded amyloid nucleation score of the following substance: EVERGIN 0.62

Dear colleague, I am looking for the recorded amyloid nucleation score of the following substance: LAVHYHILRERTALCLGDHQ -0.127

Dear colleague, I am looking for the recorded amyloid nucleation score of the following substance: VERLYDAYQIF 0.316

Dear colleague, I am looking for the recorded amyloid nucleation score of the following substance: IASRLTPHSLYFLINVGRGR 2.88

Dear colleague, I am looking for the recorded amyloid nucleation score of the following substance: FSWDPGMIWGKI 7.2

Dear colleague, I am looking for the recorded amyloid nucleation score of the following substance: LTPNCGKVGGRMRGRILSGV 0.787

Dear colleague, I am looking for the recorded amyloid nucleation score of the following substance: WLYDPSIMWNIGWVSNMMHQ -0.454

Dear colleague, I am looking for the recorded amyloid nucleation score of the following substance: YRLAWGH -0.363

Dear colleague, I am looking for the recorded amyloid nucleation score of the following substance: LRTSSSYSFLEYIRS -1.08

Dear colleague, I am looking for the recorded amyloid nucleation score of the following substance: SVCGLWWLSHSVQRWSEWYS 5.99
